Molecular target: UniProtKB P22607
Sequence (P22607 23-806): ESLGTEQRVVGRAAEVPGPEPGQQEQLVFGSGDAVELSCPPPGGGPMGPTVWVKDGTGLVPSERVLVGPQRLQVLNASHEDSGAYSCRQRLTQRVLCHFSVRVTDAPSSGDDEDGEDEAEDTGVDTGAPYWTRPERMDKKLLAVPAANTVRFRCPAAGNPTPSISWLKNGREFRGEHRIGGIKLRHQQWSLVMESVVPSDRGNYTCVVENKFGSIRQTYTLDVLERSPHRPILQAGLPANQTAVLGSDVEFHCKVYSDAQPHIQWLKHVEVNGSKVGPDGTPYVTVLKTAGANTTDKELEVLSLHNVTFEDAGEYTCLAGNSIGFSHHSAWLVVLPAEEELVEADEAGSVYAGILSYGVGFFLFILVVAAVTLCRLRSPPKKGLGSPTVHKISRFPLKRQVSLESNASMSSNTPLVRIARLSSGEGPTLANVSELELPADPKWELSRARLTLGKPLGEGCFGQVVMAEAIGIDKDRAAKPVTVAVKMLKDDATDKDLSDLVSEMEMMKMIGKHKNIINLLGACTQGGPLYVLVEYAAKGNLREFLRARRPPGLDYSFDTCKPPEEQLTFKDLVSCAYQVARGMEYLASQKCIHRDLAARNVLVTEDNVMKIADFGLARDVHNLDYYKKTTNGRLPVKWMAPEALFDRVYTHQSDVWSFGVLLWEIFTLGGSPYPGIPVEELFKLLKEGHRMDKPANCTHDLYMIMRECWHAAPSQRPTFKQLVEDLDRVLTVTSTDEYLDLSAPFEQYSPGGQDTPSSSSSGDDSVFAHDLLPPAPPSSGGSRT
Observation type: IC50 (nM)

>>> df
                                 smiles_str  measured_value
0  C/C=C/c1cc(Nc2cc(N3CCN(C)CC3)nc(Oc3ccc4[nH]c(C)cc4c3F)n2)n[nH]1               1

###

Target: cSRC(h) (Homo sapiens, UniProt P12931)
Sequence (P12931 whole entry): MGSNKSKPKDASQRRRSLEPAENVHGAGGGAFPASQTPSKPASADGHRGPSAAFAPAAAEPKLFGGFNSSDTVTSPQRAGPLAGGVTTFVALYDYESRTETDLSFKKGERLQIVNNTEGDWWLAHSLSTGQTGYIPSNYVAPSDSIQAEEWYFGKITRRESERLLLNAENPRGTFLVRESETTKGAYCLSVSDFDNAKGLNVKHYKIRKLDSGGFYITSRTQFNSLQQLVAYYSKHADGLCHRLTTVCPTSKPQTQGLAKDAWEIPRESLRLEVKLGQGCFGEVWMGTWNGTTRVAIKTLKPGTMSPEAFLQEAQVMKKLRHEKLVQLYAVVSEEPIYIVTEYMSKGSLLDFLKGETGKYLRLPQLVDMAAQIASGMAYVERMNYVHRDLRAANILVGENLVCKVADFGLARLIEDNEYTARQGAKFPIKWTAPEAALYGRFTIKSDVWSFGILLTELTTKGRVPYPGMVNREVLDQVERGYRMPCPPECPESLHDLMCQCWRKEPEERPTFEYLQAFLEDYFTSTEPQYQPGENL
Assay: KinaseProfiler kinase assay
Type: biochemical
Method: This example tests the inhibitory properties of representative compounds of the invention in c-Src kinase, Aurora-A kinase, Flt3 kinase, Ret kinase and TrkA Kinase assays (see, Daniele Fancelli et al, J. Med. Chem., 2006, 49 (24), pp 7247-7251). […] The Kinase Hotspot℠ kinase assay was also used to test the compounds for IC50 or % inhibitions (Reaction Biology Corp.). Inhibitory IC50 values were determined by titration of compound at the optimal kinase concentration (Kinase EC50).
Property: inhibition at 1 µM; scope: individual compounds
Observation type: inhibition at 1 µM (%)

                                   compound  measured_value
0  Cc1cc2c(F)c(Oc3nc(Nc4cc(C5CC5)[nH]n4)cc(N4CCN(C)CC4)n3)cc(F)c2[nH]1              99
1  Cc1cc2c(F)c(Oc3nc(Nc4cc(C5CC5)[nH]n4)cc(N4CCN(CCF)CC4)n3)ccc2[nH]1             107
2  Cc1cc2c(F)c(Oc3nc(Nc4cc(C5CC5)[nH]n4)cc(N4CCOCC4)n3)ccc2n1C             104
3  COCCN1CCN(c2cc(Nc3cc(C4CC4)[nH]n3)nc(Oc3ccc4[nH]c(C)cc4c3F)n2)CC1              96
4  Cc1cc2c(F)c(Oc3nc(Nc4cc(C5CC5)[nH]n4)cc(N4CCC(N(C)C)C4)n3)ccc2[nH]1 (stereo not shown)              98
5  CCN1CCN(c2cc(Nc3cc(C4CC4)[nH]n3)nc(Oc3ccc4[nH]c(C)cc4c3F)n2)CC1             104
6  C/C=C/c1cc(Nc2cc(N3CCNCC3)nc(Oc3ccc4[nH]c(C)cc4c3F)n2)n[nH]1              96

###

Target: Abl(h) (Homo sapiens, UniProt P00519)
Sequence (P00519 whole entry): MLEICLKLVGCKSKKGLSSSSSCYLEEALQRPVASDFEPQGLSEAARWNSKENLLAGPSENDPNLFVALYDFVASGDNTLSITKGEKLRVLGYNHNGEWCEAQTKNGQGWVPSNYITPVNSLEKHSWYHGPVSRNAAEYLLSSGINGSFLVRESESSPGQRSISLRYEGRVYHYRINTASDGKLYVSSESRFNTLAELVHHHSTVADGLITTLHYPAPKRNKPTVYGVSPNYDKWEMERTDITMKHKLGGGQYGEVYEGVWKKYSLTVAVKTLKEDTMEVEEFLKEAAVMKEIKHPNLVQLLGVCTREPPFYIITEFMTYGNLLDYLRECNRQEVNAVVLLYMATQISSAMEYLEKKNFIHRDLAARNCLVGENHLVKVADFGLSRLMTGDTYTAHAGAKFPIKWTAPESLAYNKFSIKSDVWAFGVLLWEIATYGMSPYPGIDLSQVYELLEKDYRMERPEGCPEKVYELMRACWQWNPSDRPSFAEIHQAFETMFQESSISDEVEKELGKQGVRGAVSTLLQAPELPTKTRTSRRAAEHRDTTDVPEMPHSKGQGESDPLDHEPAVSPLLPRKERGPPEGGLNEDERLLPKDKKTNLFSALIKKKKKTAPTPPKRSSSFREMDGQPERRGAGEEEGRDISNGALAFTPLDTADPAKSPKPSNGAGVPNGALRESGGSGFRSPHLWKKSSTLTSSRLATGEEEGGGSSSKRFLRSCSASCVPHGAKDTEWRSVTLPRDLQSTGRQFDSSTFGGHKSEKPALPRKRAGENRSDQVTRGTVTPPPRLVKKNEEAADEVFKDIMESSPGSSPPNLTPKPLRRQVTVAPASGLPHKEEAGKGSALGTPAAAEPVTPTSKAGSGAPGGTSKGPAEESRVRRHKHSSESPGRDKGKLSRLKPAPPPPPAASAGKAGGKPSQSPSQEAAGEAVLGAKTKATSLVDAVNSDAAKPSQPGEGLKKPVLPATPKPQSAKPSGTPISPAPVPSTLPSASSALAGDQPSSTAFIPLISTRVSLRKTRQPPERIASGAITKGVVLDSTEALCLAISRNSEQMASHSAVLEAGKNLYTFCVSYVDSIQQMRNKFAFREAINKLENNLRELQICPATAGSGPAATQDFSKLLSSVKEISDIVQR
Assay: KinaseProfiler kinase assay
Type: biochemical
Observation type: inhibition at 1 µM (%)

                                   compound  measured_value
0  Cc1cc2c(F)c(Oc3nc(Nc4cc(C5CC5)[nH]n4)cc(N4CCNCC4)n3)cc(F)c2[nH]1 [Compound 82]             106
1  Cc1cc2c(F)c(Oc3nc(Nc4cc(C5CC5)[nH]n4)cc(N4CCOCC4)n3)ccc2[nH]1 [Compound 13]             112
2  Cc1cc(Nc2cc(N3CCOCC3)nc(Oc3cc(F)c4[nH]c(C)cc4c3F)n2)n[nH]1 [Compound 107]             111
3  C/C=C/c1cc(Nc2cc(N3CCS(=O)(=O)CC3)nc(Oc3ccc4[nH]c(C)cc4c3F)n2)n[nH]1 [Compound 57]             111
4  C/C=C/c1cc(Nc2cc(N3CCOCC3)nc(Oc3cc(F)c4[nH]c(C)cc4c3F)n2)n[nH]1 [Compound 89]             112
5  C/C=C/c1cc(Nc2cc(N3CCN(CCO)CC3)nc(Oc3cc(F)c4[nH]c(C)cc4c3F)n2)n[nH]1 [Compound 88]             113

###

Property: inhibition at 1 µM; scope: individual compounds
Molecular target: Abl(h) (Homo sapiens, UniProt P00519)
Assay: KinaseProfiler kinase assay
Format: biochemical
Observation type: inhibition at 1 µM (%)

>>> print(df.to_string())
                                   compound  measured_value
0  C/C=C/c1cc(Nc2cc(N3CCC(OC)CC3)nc(Oc3ccc4[nH]c(C)cc4c3F)n2)n[nH]1             112
1  C/C=C/c1cc(Nc2cc(N3CCOCC3)nc(Oc3ccc4c(cc(C)n4C)c3F)n2)n[nH]1             116
2  C/C=C/c1cc(Nc2cc(N3CCC(O)C3)nc(Oc3cc(F)c4[nH]c(C)cc4c3F)n2)n[nH]1 (stereo not shown)             111
3  Cc1cc2c(F)c(Oc3nc(Nc4cc(C5CC5)[nH]n4)cc(N4CC(O)C4)n3)ccc2[nH]1             108
4  C/C=C/c1cc(Nc2cc(N3CCC(OC)C3)nc(Oc3ccc4[nH]c(C)cc4c3F)n2)n[nH]1 (stereo not shown)             111
5  Cc1cc2c(F)c(Oc3nc(Nc4cc(C5CC5)[nH]n4)cc(N4CCOCC4)n3)cc(F)c2[nH]1             103
6  C/C=C/c1cc(Nc2cc(N3CCC(N(CC)CC)C3)nc(Oc3ccc4[nH]c(C)cc4c3F)n2)n[nH]1 (stereo not shown)             111

###

Target: Flt3(h) (Homo sapiens, UniProt P36888)
Sequence (P36888 27-993): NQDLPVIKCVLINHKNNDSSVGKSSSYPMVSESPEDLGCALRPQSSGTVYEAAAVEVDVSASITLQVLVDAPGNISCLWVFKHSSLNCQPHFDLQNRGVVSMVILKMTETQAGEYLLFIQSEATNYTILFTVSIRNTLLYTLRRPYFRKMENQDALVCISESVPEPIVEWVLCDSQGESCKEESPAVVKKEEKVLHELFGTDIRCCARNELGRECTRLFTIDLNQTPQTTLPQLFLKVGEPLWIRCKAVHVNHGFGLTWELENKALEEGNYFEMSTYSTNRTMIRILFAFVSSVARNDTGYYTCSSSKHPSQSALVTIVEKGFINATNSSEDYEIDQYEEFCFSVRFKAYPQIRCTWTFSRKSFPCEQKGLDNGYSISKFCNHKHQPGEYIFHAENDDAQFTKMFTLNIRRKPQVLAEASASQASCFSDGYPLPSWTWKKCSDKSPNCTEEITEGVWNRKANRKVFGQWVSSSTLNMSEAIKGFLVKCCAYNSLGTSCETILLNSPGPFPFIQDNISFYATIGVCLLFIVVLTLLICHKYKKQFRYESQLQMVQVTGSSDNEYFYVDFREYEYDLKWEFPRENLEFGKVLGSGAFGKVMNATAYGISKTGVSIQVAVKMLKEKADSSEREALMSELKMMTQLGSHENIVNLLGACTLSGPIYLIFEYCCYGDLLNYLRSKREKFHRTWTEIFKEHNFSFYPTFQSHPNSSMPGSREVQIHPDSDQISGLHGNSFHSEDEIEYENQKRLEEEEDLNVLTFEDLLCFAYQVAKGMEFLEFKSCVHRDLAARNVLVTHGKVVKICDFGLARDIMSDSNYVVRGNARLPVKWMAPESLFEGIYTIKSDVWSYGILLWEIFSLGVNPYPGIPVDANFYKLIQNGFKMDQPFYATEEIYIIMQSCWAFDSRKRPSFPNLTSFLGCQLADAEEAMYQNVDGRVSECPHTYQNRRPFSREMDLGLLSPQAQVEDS
Experiment: KinaseProfiler kinase assay
Format: biochemical
Property: inhibition at 1 µM; scope: individual compounds
Observation type: inhibition at 1 µM (%)

>>> df
                                   compound                             target_desc  unit_string  measured_value
0  C/C=C/c1cc(Nc2cc(N3CCC(O)CC3)nc(Oc3cc(F)c4[nH]c(C)cc4c3F)n2)n[nH]1  Flt3(h) (Homo sapiens, UniProt P36888)            %             100
1  COCCN1CCN(c2cc(Nc3cc(C4CC4)[nH]n3)nc(Oc3ccc4[nH]c(C)cc4c3F)n2)CC1  Flt3(h) (Homo sapiens, UniProt P36888)            %             100
2  C/C=C/c1cc(Nc2cc(N3CCN(S(C)(=O)=O)CC3)nc(Oc3cc(F)c4[nH]c(C)cc4c3F)n2)n[nH]1  Flt3(h) (Homo sapiens, UniProt P36888)            %             100
3  Cc1cc2c(F)c(Oc3nc(Nc4cc(C5CC5)[nH]n4)cc(N4CCNC(CO)C4)n3)ccc2[nH]1 (stereo not shown)  Flt3(h) (Homo sapiens, UniProt P36888)            %              99
4  Cc1cc2c(F)c(Oc3nc(Nc4cc(C5CC5)[nH]n4)cc(N4CCC(F)CC4)n3)ccc2[nH]1  Flt3(h) (Homo sapiens, UniProt P36888)            %             100
5  Cc1cc2c(F)c(Oc3nc(Nc4cc(C5CC5)[nH]n4)cc(N4CCOCC4)n3)ccc2n1C  Flt3(h) (Homo sapiens, UniProt P36888)            %             101
6  C/C=C/c1cc(Nc2cc(N3CCS(=O)(=O)CC3)nc(Oc3ccc4[nH]c(C)cc4c3F)n2)n[nH]1  Flt3(h) (Homo sapiens, UniProt P36888)            %             100

###

Target: Abl(h) (Homo sapiens)
Experiment: KinaseProfiler kinase assay
Type: biochemical
Observation type: inhibition at 1 µM (%)

>>> df
                                 smiles_str    observation_type  measured_value
0  C/C=C/c1cc(Nc2cc(N3CCN(S(C)(=O)=O)CC3)nc(Oc3cc(F)c4[nH]c(C)cc4c3F)n2)n[nH]1  inhibition at 1 µM             111
1  Cc1cc2c(F)c(Oc3nc(Nc4cc(C5CC5)[nH]n4)cc(N4CCN(c5ccccn5)CC4)n3)ccc2[nH]1  inhibition at 1 µM             108
2  CCN1CCN(c2cc(Nc3cc(C4CC4)[nH]n3)nc(Oc3ccc4[nH]c(C)cc4c3F)n2)CC1  inhibition at 1 µM             115
3  Cc1cc2c(F)c(Oc3nc(Nc4cc(C5CC5)[nH]n4)cc(N4CCN(C)CC4)n3)ccc2n1C  inhibition at 1 µM             109

###

Target: Aurora-A(h) (Homo sapiens, UniProt O14965)
Sequence (O14965 whole entry): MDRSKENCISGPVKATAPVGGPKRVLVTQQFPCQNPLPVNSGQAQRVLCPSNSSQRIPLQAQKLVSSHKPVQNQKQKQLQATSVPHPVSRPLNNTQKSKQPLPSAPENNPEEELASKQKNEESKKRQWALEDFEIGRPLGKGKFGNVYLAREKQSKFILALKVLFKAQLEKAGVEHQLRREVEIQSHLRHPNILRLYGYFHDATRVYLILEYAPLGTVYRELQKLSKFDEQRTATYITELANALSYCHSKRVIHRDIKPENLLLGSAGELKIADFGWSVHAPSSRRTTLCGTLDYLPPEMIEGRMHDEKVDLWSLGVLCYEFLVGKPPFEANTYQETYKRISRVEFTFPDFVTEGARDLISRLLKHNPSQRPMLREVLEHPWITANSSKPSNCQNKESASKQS
Experiment: KinaseProfiler kinase assay
Type: biochemical
Conditions: read-out: % Inhibition @1 μM Auroro-A
Experimental: This example tests the inhibitory properties of representative compounds of the invention in c-Src kinase, Aurora-A kinase, Flt3 kinase, Ret kinase and TrkA Kinase assays (see, Daniele Fancelli et al, J. Med. Chem., 2006, 49 (24), pp 7247-7251). […] The Kinase Hotspot℠ kinase assay was also used to test the compounds for IC50 or % inhibitions (Reaction Biology Corp.). Inhibitory IC50 values were determined by titration of compound at the optimal kinase concentration (Kinase EC50).
Observation type: inhibition at 1 µM

>>> print(df.to_string())
                                    compound  measured_value
 0  Cc1cc2c(F)c(Oc3nc(Nc4cc(C5CC5)[nH]n4)cc(N4CCOCC4)n3)ccc2n1C            100%
 1  C/C=C/c1cc(Nc2cc(N3CCOCC3)nc(Oc3ccc4[nH]c(C)cc4c3F)n2)n[nH]1             99%
 2  Cc1cc2c(F)c(Oc3nc(Nc4cc(C5CC5)[nH]n4)cc(N4CCOCC4)n3)cc(F)c2[nH]1             98%
 3  Cc1cc2c(F)c(Oc3nc(Nc4cc(C5CC5)[nH]n4)cc(N4CCN(CCN(C)C)CC4)n3)ccc2[nH]1             93%
 4  C/C=C/c1cc(Nc2cc(N3CCS(=O)(=O)CC3)nc(Oc3ccc4[nH]c(C)cc4c3F)n2)n[nH]1             96%
 5  Cc1cc2c(F)c(Oc3nc(Nc4cc(C5CC5)[nH]n4)cc(N4CCN(c5ccccn5)CC4)n3)ccc2[nH]1            101%
 6  COCCN1CCN(c2cc(Nc3cc(C4CC4)[nH]n3)nc(Oc3ccc4[nH]c(C)cc4c3F)n2)CC1            101%
 7  Cc1cc2c(F)c(Oc3nc(Nc4cc(C5CC5)[nH]n4)cc(N4CCN(CCO)CC4)n3)ccc2[nH]1            100%
 8  C/C=C/c1cc(Nc2cc(N3CCC(O)C3)nc(Oc3ccc4[nH]c(C)cc4c3F)n2)n[nH]1 (stereo not drawn)             95%
 9  Cc1cc2c(F)c(Oc3nc(Nc4cc(C5CC5)[nH]n4)cc(N4CCN(CCF)CC4)n3)ccc2[nH]1             99%
10  C/C=C/c1cc(Nc2cc(N3CCN(CCF)CC3)nc(Oc3ccc4[nH]c(C)cc4c3F)n2)n[nH]1             99%
11  Cc1cc2c(F)c(Oc3nc(Nc4cc(C5CC5)[nH]n4)cc(N4CCOCC4)n3)ccc2[nH]1            100%
12  Cc1cc2c(F)c(Oc3nc(Nc4cc(C5CC5)[nH]n4)cc(N4CCC(O)CC4)n3)ccc2[nH]1            100%
13  C/C=C/c1cc(Nc2cc(N3CCN(C)CC3)nc(Oc3ccc4[nH]c(C)cc4c3Cl)n2)n[nH]1            100%
14  Cc1cc2c(F)c(Oc3nc(Nc4cc(C5CC5)[nH]n4)cc(N4CCNCC4)n3)cc(F)c2[nH]1            100%
15  Cc1cc2c(F)c(Oc3nc(Nc4cc(C5CC5)[nH]n4)cc(N4CC(O)C4)n3)ccc2[nH]1            101%
16  C/C=C/c1cc(Nc2cc(N3CCN(CC)CC3)nc(Oc3cc(F)c4[nH]c(C)cc4c3F)n2)n[nH]1            101%
17  Cc1cc2c(F)c(Oc3nc(Nc4cc(C5CC5)[nH]n4)cc(N4CCN(c5ccncc5)CC4)n3)ccc2[nH]1            101%
18  C/C=C/c1cc(Nc2cc(N3CCN(CCO)CC3)nc(Oc3cc(F)c4[nH]c(C)cc4c3F)n2)n[nH]1            100%
19  C/C=C/c1cc(Nc2cc(N3CCN(C(C)=O)CC3)nc(Oc3ccc4[nH]c(C)cc4c3F)n2)n[nH]1             99%
20  Cc1cc2c(F)c(Oc3nc(Nc4cc(C5CC5)[nH]n4)cc(N4C[C@@H](C)N[C@@H](C)C4)n3)ccc2[nH]1             99%
21  C/C=C/c1cc(Nc2cc(N3CCOCC3)nc(Oc3cc(F)c4[nH]c(C)cc4c3F)n2)n[nH]1            100%
22  Cc1cc2c(F)c(Oc3nc(Nc4cc(C5CC5)[nH]n4)cc(N4CCC(N(C)C)C4)n3)ccc2[nH]1 (stereo not drawn)            100%
23  Cc1cc(Nc2cc(N3CCN(CCO)CC3)nc(Oc3cc(F)c4[nH]c(C)cc4c3F)n2)n[nH]1             98%

Source listed as patent US10245261B2.
